Quick reference: Population Fragmented Nuclei (%) of the listed items.
system: U2OS; assay: Multiplex assay against U2OS; assay type: toxicity, cell-based; details: human, 24 h, 1 µM, compound concentration 1 uM, replicate 2
readout kind: Population Fragmented Nuclei (%)

>  <record smiles>
N#Cc1cnc(Nc2cc(NC[C@H]3CNCCO3)c(C(F)(F)F)cn2)cn1

>  <measure unit>
%

>  <reported value>
2

$$$$
>  <record smiles>
CNC(=O)c1nn(C)c2c1C(C)(C)Cc1cnc(Nc3ccc(N4CCN(C)CC4)cc3)nc1-2

>  <measure unit>
%

>  <reported value>
20

$$$$
>  <record smiles>
CC(=O)O[C@H]1C(=O)[C@@]2(C)[C@H]([C@H](OC(=O)c3ccccc3)[C@]3(O)C[C@H](OC(=O)[C@H](O)[C@@H](NC(=O)c4ccccc4)c4ccccc4)C(C)=C1C3(C)C)[C@]1(OC(C)=O)CO[C@@H]1C[C@@H]2O

>  <measure unit>
%

>  <reported value>
5

$$$$

This collection of values is drawn from ChEMBL document CHEMBL4689842.
